system: Galium aparine; experiment: Pre-emergence test, weed control; format: in vivo; details: 0.240 kg/ha, 3 weeks after treatment, rating 0-100 (100=death), Table 3
# GALAP weed control rating per entry
OUTCOME_MEASURE: GALAP weed control rating

1. Cc1cnc(-c2ccc(C(F)(F)F)cc2)nc1Oc1ccnc(Cl)c1
90
2. Cc1cc(Oc2ccnc(Cl)c2)nc(-c2ccc(C(F)(F)F)cc2)n1
97
3. CSc1cc(Oc2ccnc(Cl)c2)nc(-c2ccc(C(F)(F)F)cc2)n1
92
4. FC(F)(F)c1ccc(-c2nccc(Oc3ccnc(Cl)c3)n2)cc1
95
5. COc1cnc(-c2ccc(C(F)(F)F)cc2)nc1Oc1ccnc(Cl)c1
70

---

// values below are reported VERPE weed control rating
test system: Veronica persica; assay: Pre-emergence test, weed control; assay type: in vivo; conditions: 0.030 kg/ha, 3 weeks after treatment, rating 0-100 (100=death), Table 1
OUTCOME_MEASURE: VERPE weed control rating

1. Cc1cnc(-c2ccc(C(F)(F)F)cc2)nc1Oc1cccc(C(F)(F)F)c1
100
2. Cc1nc(-c2ccc(C(F)(F)F)cc2)nc(Oc2cccc(C(F)(F)F)c2)c1C
99
3. CCc1cc(Oc2cccc(C(F)(F)F)c2)nc(-c2ccc(C(F)(F)F)cc2)n1
100
4. FC(F)(F)c1ccc(-c2nccc(Oc3cccc(C(F)(F)F)c3)n2)cc1
100

---

system: Triticum aestivum variety “Kanzler”; assay: Post-emergence test, selectivity; format: in vivo; conditions: 0.12 kg/ha, 2–4 weeks after treatment, rating 0-100 (100=death), Table 6
In this section, each of the compounds is paired with its reported TRZAWK rating (Selectivity).
OUTCOME_MEASURE: TRZAWK rating (Selectivity)

1. CCc1cc(Oc2cccc(C(F)(F)F)c2)nc(-c2ccc(C(F)(F)F)cc2)n1 [REF-3]
25
2. Cc1cnc(-c2ccc(C(F)(F)F)cc2)nc1Oc1cccc(C(F)(F)F)c1 [REF-1]
30
3. FC(F)(F)c1ccc(-c2nccc(Oc3cccc(C(F)(F)F)c3)n2)cc1 [TTP]
8
4. Cc1nc(-c2ccc(C(F)(F)F)cc2)nc(Oc2cccc(C(F)(F)F)c2)c1C [REF-2]
8

---

tested on: HORVW; test: Pre-emergence test, selectivity; assay type: in vivo; conditions: 0.060 kg/ha, 3 weeks after treatment, rating 0-100 (100=death), Table 2
OUTCOME_MEASURE: HORVW rating (Selectivity)

1. CCc1cc(Oc2cccc(C(F)(F)F)c2)nc(-c2ccc(C(F)(F)F)cc2)n1 [REF-3]
45
2. Cc1cnc(-c2ccc(C(F)(F)F)cc2)nc1Oc1cccc(C(F)(F)F)c1 [REF-1]
55
3. FC(F)(F)c1ccc(-c2nccc(Oc3cccc(C(F)(F)F)c3)n2)cc1 [TTP]
30
4. Cc1nc(-c2ccc(C(F)(F)F)cc2)nc(Oc2cccc(C(F)(F)F)c2)c1C [REF-2]
10

---

system: Polygonum convolvulus; test: Pre-emergence test, weed control; type: in vivo; details: 0.015 kg/ha, 3 weeks after treatment, rating 0-100 (100=death), Table 1
# POLCO weed control rating per entry
OUTCOME_MEASURE: POLCO weed control rating

1) Cc1cnc(-c2ccc(C(F)(F)F)cc2)nc1Oc1cccc(C(F)(F)F)c1
92
2) CCc1cc(Oc2cccc(C(F)(F)F)c2)nc(-c2ccc(C(F)(F)F)cc2)n1
25
3) FC(F)(F)c1ccc(-c2nccc(Oc3cccc(C(F)(F)F)c3)n2)cc1
80
4) Cc1nc(-c2ccc(C(F)(F)F)cc2)nc(Oc2cccc(C(F)(F)F)c2)c1C
0
